B1: DNA topoisomerase 3-alpha, residues 812 to 851; numbered along this chain, Q13472 (parent)
chain: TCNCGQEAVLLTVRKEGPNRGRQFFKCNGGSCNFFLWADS

# Variants of: B1
# protocol_description: abundance fitness (aPCA) (normalised: wild type 0, dead -1); higher = more abundant; growth selection in yeast, the domain comes from the species named
# condition_summary: Homo sapiens
I'd be grateful if you could share measured abundance fitness for these entries.
Give the figure by itself; no unit, no explanation.

INPUT: Suppose we examine the variant F35K ; what abundance fitness value has been reported?
OUTPUT: -0.014

INPUT: Suppose we examine the variant K15C ; what abundance fitness value has been reported?
OUTPUT: -0.342

INPUT: Suppose we examine the variant G17V ; what abundance fitness value has been reported?
OUTPUT: -0.675

INPUT: Suppose we examine the variant D39C ; what abundance fitness value has been reported?
OUTPUT: -0.205

INPUT: Suppose we examine the variant F34K ; what abundance fitness value has been reported?
OUTPUT: -0.576

INPUT: Suppose we examine the variant N28L ; what abundance fitness value has been reported?
OUTPUT: -0.195

INPUT: Suppose we examine the variant V9Q ; what abundance fitness value has been reported?
OUTPUT: -0.04

INPUT: Suppose we examine the variant C27H ; what abundance fitness value has been reported?
OUTPUT: -0.753

INPUT: Suppose we examine the variant K26A ; what abundance fitness value has been reported?
OUTPUT: -0.001

INPUT: Suppose we examine the variant F35V ; what abundance fitness value has been reported?
OUTPUT: -0.352
